Target sequence: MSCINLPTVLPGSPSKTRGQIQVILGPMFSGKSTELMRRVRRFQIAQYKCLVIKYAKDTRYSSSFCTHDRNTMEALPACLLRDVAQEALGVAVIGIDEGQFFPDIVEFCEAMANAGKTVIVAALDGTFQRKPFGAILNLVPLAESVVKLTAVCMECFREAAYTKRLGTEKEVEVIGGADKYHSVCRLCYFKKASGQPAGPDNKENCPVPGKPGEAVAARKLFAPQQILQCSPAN
endpoint: IC50

Data point: Cc1cn([C@H]2C[C@H](n3cc(-c4ccccn4)nn3)[C@@H](CO)O2)c(=O)[nH]c1=O ; IC50 = 40 to 50 µM
